Molecular target: Adenosine receptor A2a (Homo sapiens, UniProt P29274)
Sequence (P29274 whole entry): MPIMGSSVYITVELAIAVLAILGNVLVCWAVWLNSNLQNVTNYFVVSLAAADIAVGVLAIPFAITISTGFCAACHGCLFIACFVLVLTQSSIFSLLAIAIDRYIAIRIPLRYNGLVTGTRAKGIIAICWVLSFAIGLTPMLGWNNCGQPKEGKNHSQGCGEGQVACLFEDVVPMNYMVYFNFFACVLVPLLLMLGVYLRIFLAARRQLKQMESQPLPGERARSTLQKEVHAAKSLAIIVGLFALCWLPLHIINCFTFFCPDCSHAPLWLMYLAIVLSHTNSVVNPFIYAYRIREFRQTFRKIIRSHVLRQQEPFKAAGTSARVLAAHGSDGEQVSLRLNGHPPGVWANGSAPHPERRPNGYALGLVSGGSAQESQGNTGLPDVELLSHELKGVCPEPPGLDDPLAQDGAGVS
Test: Antagonist activity at human A2aR expressed in HEK293 cells assessed as reduction in cAMP production incubated for 60 mins by ultra LANCE cAMP detection assay
Assay type: functional, cell-based
reported property: IC50 (nM)
Numbers only, in nM.

Field: IC50. Fill in for each record below.
1. COCCOc1ccc(N2CCN(CCn3c(=O)cnc4c(-c5ccc(C)o5)nc(N)nc43)CC2)cc1
2. COc1ccc(N2CCN(CCn3c(=O)cnc4c(-c5ccc(C)o5)nc(N)nc43)C[C@H]2C)cc1
3. Cc1ccc(-c2nc(N)nc3c2ncc(=O)n3CC2CCCCC2)o1

1: 23.8; 2: 37.5; 3: 1880

----------
Target: Adenosine receptor A2a (Homo sapiens)
Experiment: Antagonist activity at human A2aR expressed in HEK293 cells assessed as reduction in cAMP production incubated for 60 mins by ultra LANCE cAMP detection assay
Format: functional, cell-based
// thresholds for IC50 classes: low end = under 100 nM, middle = from 100 nM up to 700 nM, high end = 700 nM and over

The examples below pair each entry with its known result.
Sort into band: Cc1ccc(-c2nc(N)nc3c2ncc(=O)n3CCN2CCN(c3ccc(OC(F)(F)F)cc3)CC2)o1
middle

State the class of the compound shown: Cc1ccc(-c2nc(N)nc3c2NC(=O)CN3Cc2ccccc2)o1
high end

# bin label for COc1ccc(N(C)C2CN(CCn3c(=O)cnc4c(-c5ccc(C)o5)nc(N)nc43)C2)cc1
high end

Band assignment needed for Cc1ccc(-c2nc(N)nc3c2ncc(=O)n3CCCCc2ccccc2)o1 please.
high end

Band assignment needed for COc1ccc(N2C[C@H](C)N(CCn3c(=O)cnc4c(-c5ccc(C)o5)nc(N)nc43)C[C@H]2C)cc1 please.
high end

Could you tell me which band Cc1ccc(-c2nc(N)nc3c2ncc(=O)n3Cc2ccco2)o1 belongs to?
high end

For the record Cc1ccc(-c2nc(N)nc3c2ncc(=O)n3CCN2CCN(c3cccc(F)c3)CC2)o1 , report the class its IC50 corresponds to.
low end

Band assignment needed for Cc1ccc(-c2nc(N)nc3c2ncc(=O)n3CCN2CCN(c3ccccc3F)CC2)o1 please.
low end

Could you place Cc1ccc(-c2nc(N)nc3c2ncc(=O)n3CC2CC2)o1 in its proper category? Many thanks.
high end

Please classify: Cc1ccc(-c2nc(N)nc3c2ncc(=O)n3Cc2ccccc2)o1
middle

Now take the following compound into account.
Which IC50 category applies to Cc1ccc(-c2nc(N)nc3c2ncc(=O)n3Cc2cccc(C(F)(F)F)c2)o1 here?
high end

----------
Target: Adenosine receptor A2a (Homo sapiens)
Assay: Antagonist activity at human A2aR expressed in HEK293 cells assessed as reduction in cAMP production incubated for 60 mins by ultra LANCE cAMP detection assay
Type: functional, cell-based
I'd appreciate it if you could supply pIC50 values for the items below.
One number for each entry, as −log10 of the molar value.

Here's what some known entries look like.
Query: pIC50; subject: COc1cccc(Cn2c(=O)cnc3c(-c4ccc(C)o4)nc(N)nc32)c1
6.32

Need pIC50, item Cc1ccc(-c2nc(N)nc3c2ncc(=O)n3CCN2CCC(c3ccccc3)CC2)o1
6.41

Suppose we examine the compound COc1ccc(N2CC3CCC(C2)N3CCn2c(=O)cnc3c(-c4ccc(C)o4)nc(N)nc32)cc1 ; what pIC50 value has been reported?
6.26

Batch request: pIC50 for each of the following compounds.
1. Cc1ccc(-c2nc(N)nc3c2[nH]c(=O)n3Cc2ccccc2)o1
2. Cc1ccc(-c2nc(N)nc3c2ncc(=O)n3CCN2CCN(c3ccc(OC(F)F)cc3)CC2)o1

1: 5.99; 2: 7.20
